- Test system: West Nile virus
- ASSAY PROCEDURE: Antiviral activity against West Nile virus NY003356V2 infected in human A549 cells after 48 hrs by plaque reduction assay
- Type: functional, organism-based
- STUDY CONDITIONS: NY003356V2, A549, 48 h
MEASURE: EC50 (nM)

>>> recorded_value("O=C1C=C/C(=N/Nc2ccc([N+](=O)[O-])cc2Cl)C=C1C(=O)Nc1cccc(Cl)c1")
1270

====

- ASSAY PROCEDURE: Cytotoxicity against HEK293 cells
- Assay type: cell-based
- STUDY CONDITIONS: human
MEASURE: CC50 (nM)

>>> recorded_value("CC[C@H]1CN2CCc3cc(OC)c(OC)cc3[C@@H]2C[C@@H]1C[C@H]1NCCc2cc(OC)c(OC)cc21")
180

====

- ASSAY PROCEDURE: Cytotoxicity against human NSC
- Format: cell-based
- STUDY CONDITIONS: NSC cells
MEASURE: CC50

>>> recorded_value("O=C(c1cc(Cl)cc(Cl)c1O)c1[nH]c(F)c(Br)c1Br")
"> 100 µM"

====

Documented CC50 across a set of compounds
- ASSAY PROCEDURE: Cytotoxicity against African green monkey Vero cells
- Format: cell-based
- STUDY CONDITIONS: chlorocebus sabaeus
MEASURE: CC50

>>> recorded_value("CC(C)OC(=O)[C@H](C)N[P@](=O)(OC[C@H]1O[C@@H](n2ccc(=O)[nH]c2=O)[C@](C)(F)[C@@H]1O)Oc1ccccc1 [SOFOSBUVIR]")
"360 to 512 µM"
>>> recorded_value("NC(=O)c1ncn([C@@H]2O[C@H](CO)[C@@H](O)[C@H]2O)n1 [RIBAVIRIN]")
"> 100 µM"
>>> recorded_value("Nc1ncnc2c([C@@H]3N[C@H](CO)[C@@H](O)[C@H]3O)c[nH]c12")
"> 89 µM"
>>> recorded_value("CC[C@H](C)[C@H](NC(=O)[C@H](CO)NC(=O)CNC(=O)[C@H](Cc1ccccc1)NC(=O)[C@H](CC(=O)O)NC(=O)[C@H](Cc1c[nH]c2ccccc12)NC(=O)[C@H](C)N)C(=O)NCC(=O)NCC(=O)N[C@H](C(=O)N[C@@H](Cc1ccccc1)C(=O)N[C@@H](CC(N)=O)C(=O)N[C@@H](CO)C(=O)N[C@H](C(=O)NCC(=O)N[C@@H](CCCCN)C(=O)N[C@@H](C)C(=O)N[C@H](C(=O)N[C@@H](Cc1cnc[nH]1)C(=O)N[C@@H](CCC(N)=O)C(=O)N[C@H](C(=O)N[C@@H](Cc1ccccc1)C(=O)O)C(C)C)C(C)C)[C@@H](C)CC)C(C)C")
"> 10 µM"
>>> recorded_value("O=C(c1cc(Cl)cc(Cl)c1O)c1[nH]c(F)c(Br)c1Br")
"> 100 µM"
>>> recorded_value("C#C[C@@]1(O)[C@H](O)[C@@H](CO)O[C@H]1n1ccc2c(N)ncnc21")
"> 50 µM"

====

- ASSAY PROCEDURE: Cytotoxicity against human SNB19 cells
- Assay type: cell-based
- STUDY CONDITIONS: SNB-19 cells
MEASURE: CC50 (µM)

>>> recorded_value("CC[C@H]1CN2CCc3cc(OC)c(OC)cc3[C@@H]2C[C@@H]1C[C@H]1NCCc2cc(OC)c(OC)cc21")
0.086
